# experiment.notes: NCI Yeast Anticancer Drug Screen. Data for the sgs1 mgt1 strain (AID 161);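 also: 0% = growth of cultures given vehicle only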
# condition.parameters: S. cerevisiae sgs1 mgt1 strain, at 5.0 µM (retest, dose inferred, filed as 0.5), hits give high values
The panel holds about 79,000 compounds, 15% with a hit somewhere; the sample as a whole holds those more often.
assay.endpoint: growth inhibition (%)
Give the value, in units of %, as a plain number.

- compound: "CC12CCCCC1CCC(Br)C2=O (centres undefined)"
  growth inhibition / %: -51
- compound: "Cc1cc2c(=O)[nH]c(N)nc2nc1C"
  growth inhibition / %: -13

Measured growth inhibition, Cc1cnc2c(c1C)C(=O)c1ccccc1C2=O : 27

Measured growth inhibition, NC1C(=O)C2CCCCC2C(=O)C1C(=O)c1ccccc1 (centres undefined) : -1

Measured growth inhibition, CCCCCCCCCCCc1ccn[nH]1 : 9

Measured growth inhibition, Cc1ccc(S(=O)(=O)C(Br)CC(=O)c2ccccc2)cc1 (centres undefined) : 67

Measured growth inhibition, COc1ccc(COCCOCc2nc(C#N)c(N)o2)cc1 : 16

Measured growth inhibition, C(=[CH]/[Sn]([c]1ccccc1)([c]1ccccc1)[c]1ccccc1)/c1ccccc1 : 98

Measured growth inhibition, O=[N+]([O-])c1ccc(-c2nc(/C=N/N3CCCCC3)cs2)o1 : 17

Measured growth inhibition, COc1cc(C2c3cc4c(cc3[C@@H](OCCN)[C@H]3COC(=O)C23)OCO4)cc(OC)c1O (some centres undefined) : 29
